The next entries give measured AC50 for UniProt Q9Y5N1.
Sequence (Q9Y5N1 whole entry): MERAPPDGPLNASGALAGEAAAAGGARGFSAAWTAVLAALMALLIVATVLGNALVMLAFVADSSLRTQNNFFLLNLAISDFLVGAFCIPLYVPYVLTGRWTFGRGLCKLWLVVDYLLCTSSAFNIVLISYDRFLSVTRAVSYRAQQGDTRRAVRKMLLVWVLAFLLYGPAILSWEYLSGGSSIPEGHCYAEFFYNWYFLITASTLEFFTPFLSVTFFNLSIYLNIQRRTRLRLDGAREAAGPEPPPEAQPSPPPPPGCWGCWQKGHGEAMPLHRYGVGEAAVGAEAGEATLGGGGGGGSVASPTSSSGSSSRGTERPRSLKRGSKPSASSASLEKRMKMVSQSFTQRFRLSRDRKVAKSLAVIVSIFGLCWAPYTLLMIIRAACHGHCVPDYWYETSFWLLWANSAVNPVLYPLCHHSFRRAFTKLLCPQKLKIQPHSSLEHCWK

CCCC(CCC)C(=O)O[C@H]1C[C@H]2CC[C@@H](C1)[N+]2(C)C
> 30 µM
CCCCCCCCOc1ccccc1C(=O)Nc1ccc(C(=O)OCC[N+](C)(CC)CC)cc1 [OTILONIUM BROMIDE]
17 µM
CC(C)(N)Cc1ccc(Cl)cc1
> 10 µM

Hey, quick one: what's AC50 for each of these?
1. NS(=O)(=O)c1cc2c(cc1Cl)NCNS2(=O)=O [HYDROCHLOROTHIAZIDE]
2. CCCCCCC(C)(C)c1cc(O)c2c(c1)OC(C)(C)C1CCC(=O)CC21 (centres undefined)
3. C#CCN(C)[C@H](C)Cc1ccccc1

1: > 10 µM; 2: > 30 µM; 3: > 10 µM

Hey, quick one: what's AC50 for each of these?
1. NC1=NC(=O)C(c2ccccc2)O1 (centres undefined)
2. NS(=O)(=O)c1cc(Cl)c(Cl)c(S(N)(=O)=O)c1 [DICHLORPHENAMIDE]

1: > 10 µM; 2: > 10 µM

Quote AC50 reported for COc1ccc2c(c1)C(=O)N(CCc1ccc(S(=O)(=O)NC(=O)NC3CCCCC3)cc1)C(=O)C2(C)C please.
> 30 µM

---

Target: Voltage-gated inwardly rectifying potassium channel KCNH2 (Homo sapiens, UniProt Q12809); also: assay procedure not described here
Sequence (Q12809 whole entry): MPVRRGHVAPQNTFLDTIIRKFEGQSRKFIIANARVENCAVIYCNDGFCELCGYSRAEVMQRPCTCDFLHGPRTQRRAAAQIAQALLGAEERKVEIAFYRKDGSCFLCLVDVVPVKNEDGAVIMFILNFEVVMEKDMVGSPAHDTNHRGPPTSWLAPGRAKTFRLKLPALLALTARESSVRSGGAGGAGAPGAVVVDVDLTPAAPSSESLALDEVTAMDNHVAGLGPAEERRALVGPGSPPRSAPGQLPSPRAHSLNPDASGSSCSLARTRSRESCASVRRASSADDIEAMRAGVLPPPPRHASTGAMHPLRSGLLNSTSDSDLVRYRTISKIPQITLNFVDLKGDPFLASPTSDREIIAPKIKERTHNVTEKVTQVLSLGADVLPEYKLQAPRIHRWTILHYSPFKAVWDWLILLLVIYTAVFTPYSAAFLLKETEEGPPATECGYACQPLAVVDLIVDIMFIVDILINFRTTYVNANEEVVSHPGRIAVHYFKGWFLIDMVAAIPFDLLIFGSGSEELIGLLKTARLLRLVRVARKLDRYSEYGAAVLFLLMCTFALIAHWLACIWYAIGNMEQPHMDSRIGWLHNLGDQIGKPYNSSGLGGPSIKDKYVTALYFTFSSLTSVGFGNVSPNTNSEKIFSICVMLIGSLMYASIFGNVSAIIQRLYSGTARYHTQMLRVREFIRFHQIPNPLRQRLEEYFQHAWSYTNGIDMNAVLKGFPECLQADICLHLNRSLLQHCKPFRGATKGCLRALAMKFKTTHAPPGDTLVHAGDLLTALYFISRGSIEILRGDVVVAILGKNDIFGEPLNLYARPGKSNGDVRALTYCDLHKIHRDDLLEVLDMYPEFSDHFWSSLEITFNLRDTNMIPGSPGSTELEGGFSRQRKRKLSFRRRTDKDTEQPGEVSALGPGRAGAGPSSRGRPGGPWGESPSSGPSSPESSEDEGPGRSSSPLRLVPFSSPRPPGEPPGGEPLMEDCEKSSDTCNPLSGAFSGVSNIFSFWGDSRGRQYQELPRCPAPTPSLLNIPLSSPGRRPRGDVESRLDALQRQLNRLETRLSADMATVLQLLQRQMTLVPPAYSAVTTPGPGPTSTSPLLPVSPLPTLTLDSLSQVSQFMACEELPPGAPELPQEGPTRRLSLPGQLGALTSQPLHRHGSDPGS
Format: functional
Conditions: read-out: AC50; also: assay procedure not described here
Reported metric: AC50

Please review the entries below; each comes with its answer.
CN1CCC2=C(C1)c1ccccc1Cc1ccccc12
13 µM
N/N=c1/cc2c(n[nH]1)CCN(C(=O)c1ccccc1)C2
> 30 µM
CC[C@H](C)C(=O)O[C@H]1C[C@H](O)C=C2C=C[C@H](C)[C@H](CC[C@@H](O)C[C@@H](O)CC(=O)O)[C@H]21
> 30 µM
CN1CCN(C(c2ccccc2)c2ccccc2)CC1
20 µM
COc1ccc(-c2cc(=O)c3c(O)cc(O[C@@H]4O[C@H](CO[C@@H]5O[C@@H](C)[C@H](O)[C@@H](O)[C@H]5O)[C@@H](O)[C@H](O)[C@H]4O)cc3o2)cc1O
> 30 µM
C[N+](C)(C)CCOC(N)=O
> 30 µM
CCO/N=C(\C(=O)N[C@@H]1C(=O)N2C(C(=O)[O-])=C(Sc3nc(-c4cc[n+](C)cc4)cs3)CS[C@H]12)c1nsc(N)n1
26 µM

Attention now turns to another entry.
Output reported AC50 of the compound CC(=O)Oc1c(C)cc(OCC(O)CNC(C)C)c(C)c1C (stereo not drawn) on Voltage-gated inwardly rectifying potassium channel KCNH2 (Homo sapiens, UniProt Q12809).
> 30 µM

---

Biological target: Bile salt export pump (Homo sapiens); also: assay procedure not described here
Sequence (O95342 whole entry): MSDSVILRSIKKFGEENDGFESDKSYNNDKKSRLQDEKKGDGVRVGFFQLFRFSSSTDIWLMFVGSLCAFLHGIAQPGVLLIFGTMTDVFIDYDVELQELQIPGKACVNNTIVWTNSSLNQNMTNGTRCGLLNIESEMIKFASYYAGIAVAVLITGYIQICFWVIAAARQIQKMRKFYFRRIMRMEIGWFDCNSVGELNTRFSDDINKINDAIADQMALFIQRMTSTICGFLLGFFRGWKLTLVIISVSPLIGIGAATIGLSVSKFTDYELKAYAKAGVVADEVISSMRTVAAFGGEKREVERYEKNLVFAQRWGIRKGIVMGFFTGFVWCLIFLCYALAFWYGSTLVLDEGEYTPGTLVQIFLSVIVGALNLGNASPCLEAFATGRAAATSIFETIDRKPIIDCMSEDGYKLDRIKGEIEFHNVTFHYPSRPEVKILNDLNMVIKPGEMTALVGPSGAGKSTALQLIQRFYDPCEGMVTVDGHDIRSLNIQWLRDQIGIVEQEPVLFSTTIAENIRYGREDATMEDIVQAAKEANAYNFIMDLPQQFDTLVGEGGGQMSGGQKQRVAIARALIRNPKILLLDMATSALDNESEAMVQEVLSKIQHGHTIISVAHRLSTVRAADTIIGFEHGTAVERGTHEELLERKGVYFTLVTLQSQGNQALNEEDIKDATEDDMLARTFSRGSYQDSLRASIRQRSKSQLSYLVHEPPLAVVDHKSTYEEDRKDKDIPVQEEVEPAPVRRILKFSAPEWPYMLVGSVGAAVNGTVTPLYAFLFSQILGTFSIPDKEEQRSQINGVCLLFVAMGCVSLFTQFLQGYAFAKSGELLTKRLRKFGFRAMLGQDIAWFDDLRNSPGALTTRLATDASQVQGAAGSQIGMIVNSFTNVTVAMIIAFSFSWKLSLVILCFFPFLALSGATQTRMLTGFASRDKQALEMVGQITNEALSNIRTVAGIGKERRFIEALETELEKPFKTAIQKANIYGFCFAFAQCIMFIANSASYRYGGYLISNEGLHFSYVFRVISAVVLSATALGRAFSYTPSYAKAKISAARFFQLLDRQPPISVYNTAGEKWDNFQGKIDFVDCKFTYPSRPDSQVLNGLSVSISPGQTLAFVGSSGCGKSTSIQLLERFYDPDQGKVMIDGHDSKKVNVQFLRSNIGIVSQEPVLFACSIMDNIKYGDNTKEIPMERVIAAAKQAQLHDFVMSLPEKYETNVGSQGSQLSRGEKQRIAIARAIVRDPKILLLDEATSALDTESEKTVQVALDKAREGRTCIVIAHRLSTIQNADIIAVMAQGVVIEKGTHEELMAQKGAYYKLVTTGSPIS
Assay type: functional
Please go through the items and note down their AC50.

CN1C(=O)CC(C)(c2ccccc2)C1=O (stereo not drawn) [METHSUXIMIDE]
> 300 µM
CN1CCCC(CN2c3ccccc3Sc3ccccc32)C1 (stereo not drawn) [MEPAZINE]
100 µM
NC(=O)c1ncn([C@@H]2O[C@H](CO)[C@@H](O)[C@H]2O)c1O [MIZORIBINE]
> 300 µM
O=C(COc1ccc(Cl)cc1)N1CCN(Cc2ccc3c(c2)OCO3)CC1 [FIPEXIDE]
48 µM
CC(C)NNC(=O)c1ccncc1 [IPRONIAZID]
> 300 µM
C[N+]1(C)[C@@H]2C[C@@H](OC(=O)[C@H](CO)c3ccccc3)C[C@H]1[C@@H]1O[C@@H]12 [METHSCOPOLAMINE]
> 300 µM
N[C@@H](C(=O)N[C@@H]1C(=O)N2C(C(=O)O)=C(Cl)CS[C@H]12)c1ccccc1 [CEFACLOR ANHYDROUS]
> 300 µM

Quote AC50 reported for CCOC(=O)N[C@@H]1CC[C@@H]2[C@@H](C1)C[C@H]1C(=O)O[C@H](C)[C@H]1[C@H]2/C=C/c1ccc(-c2cccc(F)c2)cn1 [VORAPAXAR] please.
2.2 µM

---

Please go through the items and note down their AC50.
Target: Voltage-dependent L-type calcium channel subunit alpha-1C (Rattus norvegicus, UniProt P22002); also: assay procedure not described here
Assay type: functional

Please review the entries below; each comes with its answer.
CN(C)CCCN1c2ccccc2Sc2ccccc21 [PROMAZINE]
> 10 µM
CCCCCCCCOc1ccccc1C(=O)Nc1ccc(C(=O)OCC[N+](C)(CC)CC)cc1 [OTILONIUM BROMIDE]
16 µM

Hey, quick one: what's AC50 for each of these?
1. COc1cc2c(cc1OC)C(=O)C(CC1CCN(Cc3ccccc3)CC1)C2 (centres undefined) [DONEPEZIL]
2. C=C1C[C@@H]2[C@H](CC[C@]3(C)C(=O)CC[C@@H]23)[C@@]2(C)C=CC(=O)C=C12 [EXEMESTANE]

["> 10 µM", "> 10 µM"]

---

The next entries give measured AC50 for Alpha-1A adrenergic receptor (Homo sapiens).

Please review the entries below; each comes with its answer.
NC(CO)C(=O)NNCc1ccc(O)c(O)c1O (stereo not given) [BENSERAZIDE]
> 10 µM
NC[C@H]1CC[C@H](C(=O)O)CC1
> 30 µM
CN(C)CCCN1c2ccccc2Sc2ccccc21
0.0171 µM
C#C[C@]1(O)CC[C@H]2[C@@H]3CCc4cc(O)ccc4[C@H]3CC[C@@]21C
> 10 µM
CN1CCCN=C1COC(=O)C(O)(c1ccccc1)C1CCCCC1 (stereo not given)
> 10 µM
CC(C)(N)Cc1ccc(Cl)cc1
> 10 µM

Hey, quick one: what's AC50 for each of these?
1. C=C1C[C@@H]2[C@H](CC[C@]3(C)C(=O)CC[C@@H]23)[C@@]2(C)C=CC(=O)C=C12
2. CCN1CCC[C@H]1CNC(=O)c1cc(S(N)(=O)=O)ccc1OC [LEVOSULPIRIDE]
3. CC(C)C(=O)Nc1ccc([N+](=O)[O-])c(C(F)(F)F)c1 [FLUTAMIDE]
4. COc1c(N2CCNC(C)C2)c(F)cc2c(=O)c(C(=O)O)cn(C3CC3)c12 (stereo not given)

["> 10 µM", "16 µM", "> 30 µM", "> 30 µM"]

Hey, quick one: what's AC50 for each of these?
1. NC(=O)C[S+]([O-])C(c1ccccc1)c1ccccc1 (stereo not given)
2. C[C@@H]1O[C@@H]1P(=O)(O)O

1: > 10 µM; 2: > 10 µM

Hey, quick one: what's AC50 for each of these?
1. O=C1NCCN1CCN1CCC(c2cn(-c3ccc(F)cc3)c3ccc(Cl)cc23)CC1
2. NS(=O)(=O)c1cc(Cl)c(Cl)c(S(N)(=O)=O)c1 [DICHLORPHENAMIDE]

["0.017 µM", "> 10 µM"]

---

The next entries give measured AC50 for Histamine H2 receptor (Homo sapiens).

Please review the entries below; each comes with its answer.
CC(C)(N)Cc1ccc(Cl)cc1
> 10 µM
Oc1ncnc2[nH]ncc12
> 10 µM

Attention now turns to another entry.
Quote AC50 reported for NS(=O)(=O)c1cc2c(cc1Cl)NCNS2(=O)=O [HYDROCHLOROTHIAZIDE] please.
> 10 µM

---

Target: Vasopressin V1a receptor (Homo sapiens, UniProt P37288); also: assay procedure not described here
Sequence (P37288 whole entry): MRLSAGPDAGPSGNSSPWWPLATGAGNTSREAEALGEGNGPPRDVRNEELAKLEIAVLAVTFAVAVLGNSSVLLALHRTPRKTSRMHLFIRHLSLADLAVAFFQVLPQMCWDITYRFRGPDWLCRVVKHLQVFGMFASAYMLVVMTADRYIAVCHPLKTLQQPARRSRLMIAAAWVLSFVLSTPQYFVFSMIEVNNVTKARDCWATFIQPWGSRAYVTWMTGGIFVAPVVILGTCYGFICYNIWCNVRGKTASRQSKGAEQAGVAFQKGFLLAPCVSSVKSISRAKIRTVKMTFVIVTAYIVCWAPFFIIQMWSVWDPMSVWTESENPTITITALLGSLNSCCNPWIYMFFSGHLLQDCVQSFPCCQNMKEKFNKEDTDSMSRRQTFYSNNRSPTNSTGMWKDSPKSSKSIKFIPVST
Reported metric: AC50

Please review the entries below; each comes with its answer.
NC(=O)c1ncn([C@@H]2O[C@H](CO)[C@@H](O)[C@H]2O)c1O
> 30 µM
CC(C)C(=O)OCC(=O)[C@@]12O[C@H](C3CCCCC3)O[C@@H]1C[C@H]1[C@@H]3CCC4=CC(=O)C=C[C@]4(C)[C@H]3[C@@H](O)C[C@@]12C [CICLESONIDE]
> 10 µM
O=P(O)(O)C(O)(Cc1cccnc1)P(=O)(O)O
> 30 µM
CC(C)Cc1ccc(CC(=O)O)cc1
> 30 µM

Quote AC50 reported for [H]/N=C(/N)c1ccc(NCc2nc3cc(C(=O)N(CCC(=O)O)c4ccccn4)ccc3n2C)cc1 please.
> 30 µM

---

The next entries give measured AC50 for Glutamate receptor ionotropic, NMDA 1 (Rattus norvegicus).

Please review the entries below; each comes with its answer.
NC(=O)c1cnccn1 [PYRAZINAMIDE]
> 30 µM
COc1ccc2c(c1)c(CC(=O)OCC(=O)O)c(C)n2C(=O)c1ccc(Cl)cc1 [ACEMETACIN]
> 30 µM
CC(=O)O[C@@]12CO[C@@H]1C[C@H](O)[C@@]1(C)C(=O)[C@H](O)C3=C(C)[C@@H](OC(=O)[C@H](O)[C@@H](NC(=O)OC(C)(C)C)c4ccccc4)C[C@@](O)([C@@H](OC(=O)c4ccccc4)[C@H]21)C3(C)C [DOCETAXEL ANHYDROUS]
> 30 µM

Hey, quick one: what's AC50 for each of these?
1. COc1ccc(C(=O)N2CCN(c3ccc4c(c3)CCC(=O)N4)CC2)cc1OC [VESNARINONE]
2. CCCCN1CCCCC1C(=O)Nc1c(C)cccc1C (stereo unspecified) [BUPIVACAINE]
3. COC(=O)C1=C(C)NC(C)=C(C(=O)OC(C)C)C1c1cccc2nonc12 (stereo unspecified) [ISRADIPINE]
4. CCCCCN(C)CCC(O)(P(=O)(O)O)P(=O)(O)O [IBANDRONIC ACID]
5. CCCCCOC(=O)Nc1nc(=O)n([C@@H]2O[C@H](C)[C@@H](O)[C@H]2O)cc1F [CAPECITABINE]
6. CC(C(=O)O)c1ccc(C(=O)c2cccs2)cc1 (stereo unspecified) [SUPROFEN]
7. COc1ccc(C(=O)NCc2ccc(OCCN(C)C)cc2)cc1OC [ITOPRIDE]

1. > 30 µM
2. > 30 µM
3. > 10 µM
4. > 30 µM
5. > 30 µM
6. > 10 µM
7. > 30 µM

Hey, quick one: what's AC50 for each of these?
1. O=C1CN=C(c2ccccc2)c2cc(Cl)ccc2N1CC(F)(F)F [HALAZEPAM]
2. O=P(O)(O)C(O)(Cc1cccnc1)P(=O)(O)O [RISEDRONIC ACID]
3. CCC(=O)OCC(=O)[C@@]1(OC(=O)CC)[C@H](C)C[C@H]2[C@H]3[C@H]([C@@H](O)C[C@@]21C)[C@@]1(C)C=CC(=O)C=C1C[C@H]3Cl [ALCLOMETASONE DIPROPIONATE]
4. CC[C@]1(O)C[C@@H]2CN(CCc3c([nH]c4ccccc34)[C@@](C(=O)OC)(c3cc4c(cc3OC)N(C)[C@H]3[C@@](O)(C(N)=O)[C@H](O)[C@]5(CC)C=CCN6CC[C@]43[C@@H]65)C2)C1 [VINDESINE]
5. CN1C(=O)CC(=O)N(c2ccccc2)c2cc(Cl)ccc21 [CLOBAZAM]

1: > 30 µM; 2: > 30 µM; 3: > 30 µM; 4: > 30 µM; 5: > 10 µM

Quote AC50 reported for Cc1c(O)c(=O)ccn1C [DEFERIPRONE] please.
> 30 µM
